- SYSTEM UNDER TEST: von Hippel-Lindau disease tumor suppressor/Hepatocyte growth factor receptor (Homo sapiens, UniProt P08581+P40337)
- Sequence (P40337 whole entry partner): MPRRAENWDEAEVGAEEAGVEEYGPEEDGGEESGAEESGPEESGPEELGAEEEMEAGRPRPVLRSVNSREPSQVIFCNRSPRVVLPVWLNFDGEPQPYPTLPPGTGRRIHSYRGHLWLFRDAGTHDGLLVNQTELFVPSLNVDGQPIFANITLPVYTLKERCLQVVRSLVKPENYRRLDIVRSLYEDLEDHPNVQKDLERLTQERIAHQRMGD
- Sequence (P08581 25-1390 limits assumed): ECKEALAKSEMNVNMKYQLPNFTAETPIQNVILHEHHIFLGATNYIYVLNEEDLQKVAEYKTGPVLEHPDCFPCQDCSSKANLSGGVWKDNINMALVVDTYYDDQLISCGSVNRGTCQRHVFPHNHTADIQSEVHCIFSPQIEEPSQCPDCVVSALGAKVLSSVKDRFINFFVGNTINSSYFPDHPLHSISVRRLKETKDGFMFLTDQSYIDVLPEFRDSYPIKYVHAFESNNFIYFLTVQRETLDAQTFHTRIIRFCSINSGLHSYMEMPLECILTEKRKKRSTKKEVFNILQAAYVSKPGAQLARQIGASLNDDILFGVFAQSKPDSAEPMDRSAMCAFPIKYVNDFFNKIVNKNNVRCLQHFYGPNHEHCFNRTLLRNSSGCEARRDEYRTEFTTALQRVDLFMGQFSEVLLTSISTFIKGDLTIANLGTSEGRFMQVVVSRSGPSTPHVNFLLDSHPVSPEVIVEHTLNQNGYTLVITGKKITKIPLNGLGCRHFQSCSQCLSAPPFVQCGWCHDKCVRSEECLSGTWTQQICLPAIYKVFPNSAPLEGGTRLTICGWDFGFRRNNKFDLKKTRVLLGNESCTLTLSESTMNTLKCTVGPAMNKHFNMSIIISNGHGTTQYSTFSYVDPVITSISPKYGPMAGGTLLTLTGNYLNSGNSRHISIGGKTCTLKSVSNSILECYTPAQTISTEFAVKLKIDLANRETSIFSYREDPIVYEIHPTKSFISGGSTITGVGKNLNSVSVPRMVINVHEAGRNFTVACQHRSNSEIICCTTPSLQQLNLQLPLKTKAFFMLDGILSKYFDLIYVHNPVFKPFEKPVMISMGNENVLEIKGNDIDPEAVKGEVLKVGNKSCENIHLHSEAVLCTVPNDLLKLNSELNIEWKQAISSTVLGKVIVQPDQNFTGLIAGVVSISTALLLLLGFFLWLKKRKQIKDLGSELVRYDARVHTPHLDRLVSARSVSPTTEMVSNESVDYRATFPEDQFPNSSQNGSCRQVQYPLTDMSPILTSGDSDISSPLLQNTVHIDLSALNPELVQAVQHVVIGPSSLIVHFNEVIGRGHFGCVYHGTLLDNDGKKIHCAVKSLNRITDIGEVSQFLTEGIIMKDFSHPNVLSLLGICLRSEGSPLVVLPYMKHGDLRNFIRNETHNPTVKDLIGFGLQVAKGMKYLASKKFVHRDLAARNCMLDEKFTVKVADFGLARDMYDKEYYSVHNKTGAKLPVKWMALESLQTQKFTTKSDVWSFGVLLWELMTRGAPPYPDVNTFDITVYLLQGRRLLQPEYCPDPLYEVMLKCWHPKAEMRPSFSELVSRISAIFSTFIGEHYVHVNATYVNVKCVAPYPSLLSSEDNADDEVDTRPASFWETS
- EXPERIMENT: PROTAC activity at VHL/c-MET in human MKN-45 cells assessed as induction of c-MET degradation by measuring residual activity at 100 nM incubated for 24 hrs by Western blot analysis (reference value: 100 %)
- Format: cell-based
A collection of compounds and their measured Activity
All answers are understood in %, so give the number only.

Please review the following examples before continuing.
Cc1ncsc1-c1ccc([C@H](C)NC(=O)[C@@H]2C[C@@H](O)CN2C(=O)[C@@H](NC(=O)COCCOCCNC(=O)c2ccc(-c3cnc4ncc(Cc5ccc6ncccc6c5)n4n3)cc2F)C(C)(C)C)cc1; 70
Cc1ncsc1-c1ccc([C@H](C)NC(=O)[C@@H]2C[C@@H](O)CN2C(=O)[C@@H](NC(=O)CCCCCCCCCCC(=O)N2CCC(COc3cnc(-c4cccc(Cn5nc(-c6cccc(C#N)c6)ccc5=O)c4)nc3)CC2)C(C)(C)C)cc1; 56

Here is another compound to look at.
Query Cc1ncsc1-c1ccc([C@H](C)NC(=O)[C@@H]2C[C@@H](O)CN2C(=O)[C@@H](NC(=O)CCCCCCCCCCC(=O)N2CCC(n3cc(-c4cnc(N)c(O[C@H](C)c5c(Cl)ccc(F)c5Cl)c4)cn3)CC2)C(C)(C)C)cc1 yields Activity of 73

The measured values listed here are drawn from ChEMBL document CHEMBL6120971.
